# key: entry, value: IC50
# System: p-IKKα levels in L363 (NIK translocated multiple myeloma) cells
# assay.procedure: Effect of compounds on p-IKKα levels in L363 cells (AlphaLISA SureFire Ultra)
# Assay type: cell-based, human
# condition.details: 250 ng/ml BAFF stimulated, 10 μM MG132, 6 h, average of values obtained, read-out: Assay 2 IC50
# Procedure: Effect of Compounds on p-IKKα Levels in L363 (NIK Translocated Multiple Myeloma) Cells All compounds tested were dissolved and serially diluted in DMSO, 1:3 dilution for 11 points in an Echo compatible plate. 100% DMSO was added to columns 12 and 24 of the plate to serve as high and low signal controls. This compound plate was used to spot 20 nL of compound or DMSO into a Greiner 384 well TC plate (781080). The final DMSO concentration was 0.3% (v/v) in cell assays. […]

Below: 3 compounds and their reported IC50.
compound	tested.target	IC50
O[C@@]1(c2cccc(-c3csc(-c4c[nH]c5ncccc45)n3)c2)COc2cccnc21 [Example 85]	p-IKKα levels in L363 (NIK translocated multiple myeloma) cells	> 500 nM
O[C@@]1(c2cccc(-c3csc(-c4c[nH]c5nccnc45)n3)c2)COc2cccnc21 [Example 17]	p-IKKα levels in L363 (NIK translocated multiple myeloma) cells	≤ 100 nM
O[C@@]1(c2cccc(-c3csc(-c4c[nH]c5nccnc45)n3)c2)COc2cccnc21 [Example 86]	p-IKKα levels in L363 (NIK translocated multiple myeloma) cells	> 500 nM

Query :: Find the recorded IC50 belonging to O[C@@]1(c2cccc(-c3csc(-c4c[nH]c5ncccc45)n3)c2)COc2cccnc21 [Example 16] and report it.
Result :: 100 to 500 nM

* * *

# key: entry, value: IC50
# Tested on: p-IKKα levels in L363 (NIK translocated multiple myeloma) cells
# assay.procedure: Effect of compounds on p-IKKα levels in L363 cells (AlphaLISA SureFire Ultra)
# Type: cell-based, human
# condition.details: Homo sapiens, L-363, 6 h, 250 ng/ml BAFF stimulated, 10 μM MG132, 6 h, average of values obtained, read-out: Assay 2 IC50
# Protocol: Effect of Compounds on p-IKKα Levels in L363 (NIK Translocated Multiple Myeloma) Cells All compounds tested were dissolved and serially diluted in DMSO, 1:3 dilution for 11 points in an Echo compatible plate. 100% DMSO was added to columns 12 and 24 of the plate to serve as high and low signal controls. This compound plate was used to spot 20 nL of compound or DMSO into a Greiner 384 well TC plate (781080). The final DMSO concentration was 0.3% (v/v) in cell assays. […]

O[C@@]1(c2cccc(-c3nc(-c4c[nH]c5ncccc45)cs3)c2)CCc2scnc21 ≤ 100 nM

Query :: Find the recorded IC50 belonging to O[C@@]1(c2cccc(-c3csc(-c4c[nH]c5ncc(Cl)cc45)n3)c2)CCn2ccnc21 and report it.
Result :: ≤ 100 nM

Query :: Find the recorded IC50 belonging to O[C@]1(c2cccc(-c3csc(-c4c[nH]c5nccnc45)n3)c2)C=Cn2ccnc21 and report it.
Result :: > 500 nM

Query :: Find the recorded IC50 belonging to O[C@]1(c2cccc(-c3csc(-c4c[nH]c5ncncc45)n3)c2)CCn2ccnc21 and report it.
Result :: > 500 nM

Entry source: patent US20230416256A1
